Known log10(Trimeric HA Binding RLU) of a selection of binders
molecular target: recombinant soluble homotrimeric HA, A/Hong Kong/156/97 (H5N1) (influenza A virus A/Hong Kong/156/97 (H5N1)); assay: microarray, trimeric HA, transfection supernatant; conditions: remark: other sources report otherwise
outcome measure: log10(Trimeric HA Binding RLU) (log10 of the value in RLU)

binder="TCN-550 (5096_F06) (antibody, V domains shown) VH: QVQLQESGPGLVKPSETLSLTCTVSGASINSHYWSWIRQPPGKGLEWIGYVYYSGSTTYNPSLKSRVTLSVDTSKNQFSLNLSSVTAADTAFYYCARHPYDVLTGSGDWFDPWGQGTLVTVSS VL: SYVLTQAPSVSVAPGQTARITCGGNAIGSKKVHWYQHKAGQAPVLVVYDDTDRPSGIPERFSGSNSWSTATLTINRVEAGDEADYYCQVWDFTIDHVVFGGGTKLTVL" test_value=2.98
binder="TCN-538 (3206_O17) (antibody, V domains shown) VH: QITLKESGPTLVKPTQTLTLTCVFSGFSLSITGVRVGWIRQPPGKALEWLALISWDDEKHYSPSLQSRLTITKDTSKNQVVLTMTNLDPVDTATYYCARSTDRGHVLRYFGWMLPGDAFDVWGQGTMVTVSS VL: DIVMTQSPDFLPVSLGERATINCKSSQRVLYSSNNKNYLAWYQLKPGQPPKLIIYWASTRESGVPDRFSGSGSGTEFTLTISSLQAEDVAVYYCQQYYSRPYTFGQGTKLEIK" test_value=3.71
binder="TCN-557 (5081_A04) (antibody, V domains shown) VH: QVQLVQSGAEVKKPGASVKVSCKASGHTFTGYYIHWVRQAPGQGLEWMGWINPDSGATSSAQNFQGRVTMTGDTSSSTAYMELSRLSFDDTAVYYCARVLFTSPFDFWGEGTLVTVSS VL: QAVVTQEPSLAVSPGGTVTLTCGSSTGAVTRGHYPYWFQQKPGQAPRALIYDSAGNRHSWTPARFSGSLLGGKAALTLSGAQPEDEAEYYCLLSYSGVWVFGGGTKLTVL" test_value=4.43
binder="TCN-552 (5249_I23) (antibody, V domains shown) VH: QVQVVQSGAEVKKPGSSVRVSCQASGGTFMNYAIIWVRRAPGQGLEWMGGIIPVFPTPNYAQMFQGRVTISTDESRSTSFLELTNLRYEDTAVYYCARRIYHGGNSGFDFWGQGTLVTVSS VL: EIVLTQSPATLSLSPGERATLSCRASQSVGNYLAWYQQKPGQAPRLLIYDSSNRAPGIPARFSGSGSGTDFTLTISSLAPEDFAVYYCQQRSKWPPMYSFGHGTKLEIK" test_value=4.56
binder="TCN-553 (5261_C18) (antibody, V domains shown) VH: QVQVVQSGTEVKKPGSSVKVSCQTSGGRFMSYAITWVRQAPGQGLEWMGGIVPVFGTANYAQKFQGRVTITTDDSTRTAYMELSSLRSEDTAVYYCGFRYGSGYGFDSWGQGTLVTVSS VL: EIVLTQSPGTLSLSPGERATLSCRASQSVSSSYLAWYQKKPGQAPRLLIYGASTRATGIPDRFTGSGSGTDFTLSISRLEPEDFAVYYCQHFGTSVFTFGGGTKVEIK" test_value=4.56
binder="TCN-555 (5246_L16) (antibody, V domains shown) VH: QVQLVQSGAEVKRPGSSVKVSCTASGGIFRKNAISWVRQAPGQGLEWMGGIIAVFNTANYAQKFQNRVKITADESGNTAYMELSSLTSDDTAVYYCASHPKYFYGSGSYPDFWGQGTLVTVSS VL: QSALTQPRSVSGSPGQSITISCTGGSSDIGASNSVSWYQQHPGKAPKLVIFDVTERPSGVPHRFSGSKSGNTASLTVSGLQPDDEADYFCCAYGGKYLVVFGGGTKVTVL" test_value=4.56
binder="TCN-551 (5243_D01) (antibody, V domains shown) VH: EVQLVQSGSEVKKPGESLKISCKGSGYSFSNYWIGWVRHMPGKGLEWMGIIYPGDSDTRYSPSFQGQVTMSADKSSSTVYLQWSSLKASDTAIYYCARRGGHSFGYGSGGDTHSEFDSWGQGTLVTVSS VL: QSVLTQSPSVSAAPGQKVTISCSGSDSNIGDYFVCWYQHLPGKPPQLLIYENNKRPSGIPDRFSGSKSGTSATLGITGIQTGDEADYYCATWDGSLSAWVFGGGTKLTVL" test_value=2.90
binder="TCN-539 (5056_A08) (antibody, V domains shown) VH: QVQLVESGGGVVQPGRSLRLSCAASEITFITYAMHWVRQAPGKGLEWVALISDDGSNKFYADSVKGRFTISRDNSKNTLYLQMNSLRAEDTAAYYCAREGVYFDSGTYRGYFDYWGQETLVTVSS VL: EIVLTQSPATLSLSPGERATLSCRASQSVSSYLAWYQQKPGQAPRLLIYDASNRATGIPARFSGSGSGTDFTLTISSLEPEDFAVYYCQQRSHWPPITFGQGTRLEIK" test_value=3.16
binder="TCN-523 (5248_A17) (antibody, V domains shown) VH: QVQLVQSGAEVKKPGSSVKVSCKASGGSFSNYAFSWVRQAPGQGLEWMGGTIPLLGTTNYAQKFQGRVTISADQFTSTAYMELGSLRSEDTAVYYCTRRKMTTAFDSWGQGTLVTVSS VL: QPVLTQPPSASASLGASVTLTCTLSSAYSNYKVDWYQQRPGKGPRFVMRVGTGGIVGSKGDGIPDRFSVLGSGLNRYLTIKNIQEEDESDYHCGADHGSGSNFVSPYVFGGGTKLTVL" test_value=4.45
binder="TCN-537 (3194_D21) (antibody, V domains shown) VH: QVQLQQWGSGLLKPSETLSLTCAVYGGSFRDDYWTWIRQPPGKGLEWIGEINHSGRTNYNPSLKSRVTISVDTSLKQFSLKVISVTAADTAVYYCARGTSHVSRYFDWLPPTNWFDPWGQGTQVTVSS VL: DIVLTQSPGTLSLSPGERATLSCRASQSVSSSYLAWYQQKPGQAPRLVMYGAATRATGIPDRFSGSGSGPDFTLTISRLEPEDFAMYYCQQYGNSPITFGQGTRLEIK" test_value=4.03
